conditions: in acetone, 303.15 K

| COMPOUND | solubility (mole fraction) |
| --- | --- |
| O=P1(O)OCC2(CO1)COP(=O)(O)OC2 (stereo unspecified) | 0.0045 |

----------
conditions: in acetonitrile, 327.45 K
MEASURED_PARAMETER: solubility (mole fraction)

| MOLECULE | MEASURED_PARAMETER | MEASURED_NUMBER |
| --- | --- | --- |
| O=P1(O)OCC2(CO1)COP(=O)(O)OC2 (stereo unspecified) | solubility (mole fraction) | 0.0028 |

----------
conditions: in water, 348.35 K

| COMPOUND | solubility (mole fraction) |
| --- | --- |
| O=P1(Oc2ccccc2)OCC2(CO1)COP(=O)(Oc1ccccc1)OC2 (stereo unspecified) | 0.00241 |
